Give DC50 for every item shown.
- Target desc: Androgen Receptor (Homo sapiens, UniProt P10275)
- Construct: endogenous in cells; host or cells: VCaP cells
- Sequence (P10275 whole entry): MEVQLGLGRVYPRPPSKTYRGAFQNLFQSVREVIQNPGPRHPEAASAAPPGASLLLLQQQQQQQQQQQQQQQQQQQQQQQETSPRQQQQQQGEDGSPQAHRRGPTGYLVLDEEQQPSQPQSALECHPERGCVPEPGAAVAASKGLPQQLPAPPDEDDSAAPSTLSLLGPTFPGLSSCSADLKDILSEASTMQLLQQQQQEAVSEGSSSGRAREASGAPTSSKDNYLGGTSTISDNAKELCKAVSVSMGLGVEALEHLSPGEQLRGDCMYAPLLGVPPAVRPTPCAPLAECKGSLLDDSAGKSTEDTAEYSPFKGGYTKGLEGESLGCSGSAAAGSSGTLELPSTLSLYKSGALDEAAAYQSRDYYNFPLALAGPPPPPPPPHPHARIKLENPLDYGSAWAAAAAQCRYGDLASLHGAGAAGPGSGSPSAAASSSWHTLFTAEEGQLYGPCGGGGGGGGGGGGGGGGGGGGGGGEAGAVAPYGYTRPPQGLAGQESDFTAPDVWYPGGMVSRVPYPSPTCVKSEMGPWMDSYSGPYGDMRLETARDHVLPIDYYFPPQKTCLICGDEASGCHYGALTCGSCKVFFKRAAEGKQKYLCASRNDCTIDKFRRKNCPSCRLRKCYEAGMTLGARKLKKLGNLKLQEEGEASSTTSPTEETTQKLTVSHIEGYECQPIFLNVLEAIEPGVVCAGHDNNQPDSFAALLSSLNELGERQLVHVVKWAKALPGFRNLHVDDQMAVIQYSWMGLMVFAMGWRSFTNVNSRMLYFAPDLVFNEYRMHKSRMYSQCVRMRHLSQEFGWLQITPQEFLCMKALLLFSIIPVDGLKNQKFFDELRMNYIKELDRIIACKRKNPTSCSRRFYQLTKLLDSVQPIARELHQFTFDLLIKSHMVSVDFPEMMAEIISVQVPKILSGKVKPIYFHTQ
- Protocol description: Androgen Receptor ELISA assay (PathScan AR ELISA) in VCaP cells: AR degradation, Dmax and DC50
- Type: cell-based
- Reported conditions: read-out: VCaP DC50; VCaP cells; concentration that caused 50% Androgen Receptor degradation

Q) Provide value of DC50 for this record tested with Androgen Receptor (Homo sapiens, UniProt P10275): Cc1ncsc1-c1ccc(CNC(=O)[C@@H]2C[C@@H](O)CN2C(=O)[C@@H](NC(=O)CCc2ccc(OCCOc3ccc(N4C(=S)N(c5ccc(C#N)c(C(F)(F)F)c5)C(=O)C4(C)C)cc3)cc2)C(C)(C)C)cc1
A) < 50 nM

Q) Provide value of DC50 for this record tested with Androgen Receptor (Homo sapiens, UniProt P10275): Cc1ncsc1-c1ccc(CNC(=O)[C@@H]2C[C@@H](O)CN2C(=O)[C@@H](NC(=O)CCc2ccc(OCCCOc3ccc(N4C(=S)N(c5ccc(C#N)c(C(F)(F)F)c5)C(=O)C4(C)C)cc3)cc2)C(C)(C)C)cc1
A) 51 to 500 nM

Q) Provide value of DC50 for this record tested with Androgen Receptor (Homo sapiens, UniProt P10275): Cc1ncsc1-c1ccc(CNC(=O)[C@@H]2C[C@@H](O)CN2C(=O)[C@@H](NC(=O)Cc2cccc(OCCCOCCOc3ccc(N4C(=S)N(c5ccc(C#N)c(C(F)(F)F)c5)C(=O)C4(C)C)cc3)c2)C(C)(C)C)cc1
A) 51 to 500 nM

Q) Provide value of DC50 for this record tested with Androgen Receptor (Homo sapiens, UniProt P10275): Cc1ncsc1-c1ccc(CNC(=O)[C@@H]2C[C@@H](O)CN2C(=O)[C@@H](NC(=O)COCCCCCOC2CCN(C(=O)c3ccc(N4C(=S)N(c5ccc(C#N)c(C(F)(F)F)c5)C(=O)C4(C)C)cc3)CC2)C(C)(C)C)cc1
A) 51 to 500 nM

Q) Provide value of DC50 for this record tested with Androgen Receptor (Homo sapiens, UniProt P10275): Cc1ncsc1-c1ccc(CNC(=O)[C@@H]2C[C@@H](O)CN2C(=O)[C@@H](NC(=O)COCCCOCCOc2cccc(-c3ccc(N4C(=S)N(c5ccc(C#N)c(C(F)(F)F)c5)C(=O)C4(C)C)cc3)c2)C(C)(C)C)cc1
A) < 50 nM

Q) Provide value of DC50 for this record tested with Androgen Receptor (Homo sapiens, UniProt P10275): CC(C)(C)[C@H](NC(=O)COCC1CC2(C1)CC(COc1ccc(N3C(=S)N(c4ccc(C#N)c(Cl)c4)C(=O)C3(C)C)cc1)C2)C(=O)N1C[C@H](O)C[C@H]1C(=O)NCc1ccc(-c2cnco2)cc1 (some centres unmarked)
A) < 50 nM

Q) Provide value of DC50 for this record tested with Androgen Receptor (Homo sapiens, UniProt P10275): Cc1ncsc1-c1ccc(CNC(=O)[C@@H]2C[C@@H](O)CN2C(=O)[C@@H](NC(=O)COCCOc2cccc(CCCOc3ccc(N4C(=S)N(c5ccc(C#N)c(C(F)(F)F)c5)C(=O)C4(C)C)cc3)c2)C(C)(C)C)cc1
A) < 50 nM

Q) Provide value of DC50 for this record tested with Androgen Receptor (Homo sapiens, UniProt P10275): Cc1ncsc1-c1ccc(CNC(=O)[C@@H]2C[C@@H](O)CN2C(=O)[C@@H](NC(=O)COCCCOCCCOc2ccc(CN3C(=S)N(c4ccc(C#N)c(C(F)(F)F)c4)C(=O)C3(C)C)cc2)C(C)(C)C)cc1
A) < 50 nM

Q) Provide value of DC50 for this record tested with Androgen Receptor (Homo sapiens, UniProt P10275): Cc1ncsc1-c1ccc(CNC(=O)[C@@H]2C[C@@H](O)CN2C(=O)[C@@H](NC(=O)CCCOCCOc2ccc(-c3ccc(N4C(=S)N(c5ccc(C#N)c(C(F)(F)F)c5)C(=O)C4(C)C)cc3)cc2)C(C)(C)C)cc1
A) < 50 nM

Q) Provide value of DC50 for this record tested with Androgen Receptor (Homo sapiens, UniProt P10275): Cc1ncsc1-c1ccc([C@H](C)NC(=O)[C@@H]2C[C@@H](O)CN2C(=O)[C@@H](NC(=O)COCC2CC3(C2)CC(COc2ccc(N4C(=S)N(c5ccc(C#N)c(C(F)(F)F)c5)C(=O)C4(C)C)cc2)C3)C(C)(C)C)cc1 (some centres unmarked)
A) < 50 nM

Q) Provide value of DC50 for this record tested with Androgen Receptor (Homo sapiens, UniProt P10275): Cc1ncsc1-c1ccc(CNC(=O)[C@@H]2C[C@@H](O)CN2C(=O)[C@@H](NC(=O)CCCOCCN2CCC(c3ccc(N4C(=S)N(c5ccc(C#N)c(C(F)(F)F)c5)C(=O)C4(C)C)cc3)CC2)C(C)(C)C)cc1
A) < 50 nM

* * *

Give DC50 for every item shown.
- Target desc: Androgen Receptor (Homo sapiens, UniProt P10275)
- Construct: endogenous in cells; host or cells: VCaP cells
- Protocol description: Androgen Receptor ELISA assay (PathScan AR ELISA) in VCaP cells: AR degradation, Dmax and DC50
- Assay type: cell-based
- Reported conditions: read-out: VCaP DC50; VCaP cells; Table 35

Q) Dear colleague, I am looking for the recorded DC50 of the following compound: Cc1ncsc1-c1ccc([C@H](C)NC(=O)[C@@H]2C[C@@H](O)CN2C(=O)[C@@H](NC(=O)COc2ccc(OC3CCN(c4ccc(N5C(=S)N(c6ccc(C#N)c(C(F)(F)F)c6)C(=O)C5(C)C)cn4)CC3)nc2)C(C)(C)C)cc1
A) > 501 nM

Q) Dear colleague, I am looking for the recorded DC50 of the following compound: Cc1ncsc1-c1ccc([C@H](C)NC(=O)[C@@H]2C[C@@H](O)CN2C(=O)[C@@H](NC(=O)COC[C@@H](O)CCOc2ccc(-c3ccc(N4C(=S)N(c5ccc(C#N)c(C(F)(F)F)c5)C(=O)C4(C)C)cc3)cc2)C(C)(C)C)cc1
A) < 50 nM

Q) Dear colleague, I am looking for the recorded DC50 of the following compound: Cc1ncsc1-c1ccc(CNC(=O)[C@@H]2C[C@@H](O)CN2C(=O)[C@@H](NC(=O)COCC2CCN(c3ccc(-c4ccc(N5C(=S)N(c6ccc(C#N)c(C(F)(F)F)c6)C(=O)C5(C)C)cc4)cn3)CC2)C(C)(C)C)cc1
A) 51 to 500 nM

Q) Dear colleague, I am looking for the recorded DC50 of the following compound: Cc1ncsc1-c1ccc([C@H](C)NC(=O)[C@@H]2C[C@@H](O)CN2C(=O)[C@H](C(C)C)n2cc(Oc3cccc(OCCCCCOc4ccc(N5C(=S)N(c6ccc(C#N)c(C(F)(F)F)c6)C(=O)C5(C)C)cc4)c3)cn2)nc1
A) > 501 nM

Q) Dear colleague, I am looking for the recorded DC50 of the following compound: Cc1ncsc1-c1ccc([C@H](C)NC(=O)[C@@H]2C[C@@H](O)CN2C(=O)[C@@H](C(C)C)n2cc(Oc3cccc(OCCCCCOc4ccc(N5C(=S)N(c6ccc(C#N)c(C(F)(F)F)c6)C(=O)C5(C)C)cc4)c3)cn2)nc1
A) > 501 nM

Q) Dear colleague, I am looking for the recorded DC50 of the following compound: Cc1ncsc1-c1ccc(CNC(=O)[C@@H]2C[C@@H](O)CN2C(=O)[C@@H](C(C)C)n2cc(OCCCOCCCCCOc3ccc(N4C(=S)N(c5ccc(C#N)c(C(F)(F)F)c5)C(=O)C4(C)C)cc3)cn2)nc1 (racemic)
A) > 501 nM

Q) Dear colleague, I am looking for the recorded DC50 of the following compound: Cc1ncsc1-c1ccc(CNC(=O)[C@@H]2C[C@@H](O)CN2C(=O)[C@@H](NC(=O)COCCCCOc2ccc(-c3ccc(N4C(=S)N(c5ccc(C#N)c(C(F)(F)F)c5)C(=O)C4(C)C)cc3)cc2)C(C)(C)C(=O)O)cc1
A) > 501 nM

Q) Dear colleague, I am looking for the recorded DC50 of the following compound: Cc1ncsc1-c1ccc(CNC(=O)[C@@H]2C[C@@H](O)CN2C(=O)[C@@H](NC(=O)COCCCCNc2ccc(-c3ccc(N4C(=S)N(c5ccc(C#N)c(C(F)(F)F)c5)C(=O)C4(C)C)cc3)cn2)C(C)(C)C)cc1
A) < 50 nM

* * *

- Target desc: Androgen Receptor (Homo sapiens)
- Construct: endogenous in cells; host or cells: VCaP cells
- Protocol description: Androgen Receptor ELISA assay (PathScan AR ELISA) in VCaP cells: AR degradation, Dmax and DC50
- Format: cell-based
- Reported conditions: VCaP, VCaP cells; Table 35; read-out: VCaP Dmax (%)
Measured metric: Dmax

Q) Dear colleague, I am looking for the recorded Dmax of the following compound: COc1ccc(CNC(=O)[C@@H]2C[C@@H](O)CN2C(=O)[C@@H](NC(=O)COCCCCCNc2ccc(C(=O)N[C@H]3C(C)(C)[C@H](Oc4ccc(C#N)c(Cl)c4)C3(C)C)cc2)C(C)(C)C)cc1 [Example 522]
A) 51 to 70%

Q) Dear colleague, I am looking for the recorded Dmax of the following compound: CC(C)(C)[C@H](NC(=O)COCCCCCNc1ccc(C(=O)N[C@H]2C(C)(C)[C@H](Oc3ccc(C#N)c(Cl)c3)C2(C)C)cc1)C(=O)N1C[C@H](O)C[C@H]1C(=O)NCc1ccc(-c2ccncn2)cc1 [Example 533]
A) 26 to 50%
